Target: SARS-CoV-2 receptor binding domain (RBD), wild type (SARS-CoV-2, UniProt P0DTC2 319-539)
Assay: ELISA, RBD protein coated, mAb titrated

{"binder": "C089 (antibody, V domains shown) VH: QVQLVESGGGVVQPGRSLRLSCAASGFTFRTYAMHWVRQAPGKGLEWVAVILSDGNNKYYADSVKGRFTISRDNSKNTLYLQMNSLRAEDTAIFYCAREQEANYYDISGYYHWGESLGYWGQGTLVTVSS VL: DIQLTQSPSFLSASVGDRVTITCRASQGISSYLAWYQQKPGKAPKLLIYGASTLQSGVPSRFSGSGSGTEFTLTISSLQPEDFASYYCQKVNSHPPGLTFGGGTKVEIK", "EC50 [ng/mL]": 4.69}
{"binder": "C080 (antibody, V domains shown) VH: EVQLVQSGAEVKKPGESLNISCKASGYSFTIYWIAWVRQLPGKGLEWMGIIYPGDSDTRYSPSFQGQVTISADKSISTAYLQWRSLKASDSAVYYCARGVAVDWYFDLWGRGTLVTVSS VL: QSVLTQPPSVSGAPGQRVTISCAGSSSNIGAGFDVYWYQQLPGTAPKLLIYGNNNRPSGVPDRFSGSKSGTSASLAITGLQAEDEADYYCQSSGSVLSDLYVFGTGTKVTVL", "EC50 [ng/mL]": 1.97}
{"binder": "C091 (antibody, V domains shown) VH: QVQLVQSGAEVKKPGSSVKVSCKASGGTFSSYTISWVRQAPGQGLEWMGRIIPILGIANYAQKFQGRVTITADKSTSTAYMELSSLRSEDTAVYYCARDSGYSGYGSTYYMDVWGKGTTVTVSS VL: QSVLTQPPSVSGAPGQRVTISCTGSSSNIGAGYDVHWYQQLPGTAPKLLIYGNSNRPSGVPDRFSGSKSGTSASLAITGLQAEDEADYYCQSYDSSLSGSVFGTVTKVTVL", "EC50 [ng/mL]": 89.5}
{"binder": "C066 (antibody, V domains shown) VH: EVQLVESGGGLIQPGGSLRLSCAASGLLVSRNYMTWVRQAPGKGLEWVSVIYSGGSTFYADSVRGRFTISRDNSKNTLYLQMDSLRAEDTAVYYCARDVGDYYGMDVWGQGTTVTVSS VL: DIQLTQSPAFLSASVGDRVTITCRASQGMSNYLAWYQQKPGKAPNLLIYTASTLQSGVPSRFSGSGSGTEFTLTISSLQPEDFATYYCQLLNSYPQLTFGGGTKVEIK", "EC50 [ng/mL]": 4.2}

Hello, the source for this data is patent US20220195015A1, in case you need it.
